tested on: BT-549 breast; assay: NCI-60 one-dose screen, 48 h (100 = growth as untreated, 0 = no growth, -100 = all killed); conditions: 10 µM unless noted
Compounds without any hit were thinned out: in the full panel of roughly 83,000, 20% have a hit.
parameter.measured: growth (%)
API: value field is a number in %; no unit string.

Exercise: Given the compound CC12CC[C@@H]3[C@]4(C)COC(c5cn[nH]c5-c5cccc(Cl)c5)O[C@@H]4CC[C@@]3(C)[C@@H]1CC(C1=CCOC1=O)O2 (some centres undefined) , what is its reported growth?
Solution: 0.371

Exercise: I'd like to know its growth. The compound in question is Cc1ccc(C2CC(c3ccc(S(=O)(=O)NCCNc4nc(Nc5ccc(F)cc5)nc(N(C)C)n4)cc3)=Nc3c(N)nc(N)nc3N2)cc1 (centres undefined)
Solution: 58

Exercise: growth for `CCCCSc1nc(NCCc2c[nH]c3ccccc23)c(C#N)c(-c2ccc(F)cc2)n1` ?
Solution: 101

Exercise: Fill in: growth of `Cn1cc(-c2cc(N)n3nc(-c4cn(C)c5ncccc45)cc3n2)c2cccnc21` is ___
Solution: 62.5

---

system: CAKI-1 renal; assay: NCI-60 one-dose screen, 48 h (100 = growth as untreated, 0 = no growth, -100 = all killed); conditions: 10 µM unless noted
About 83,000 compounds went through this panel and 20% of them were active in at least one assay; those are over-represented in the sample as a whole.
Please respond with reported growth for every item in the list.
Give just the number in %; leave the unit off.

Exercise: Please report the recorded growth for `Cc1cc(=O)oc2cc(OCCOc3ccc(/C=C/C(=O)Nc4ccccc4N)cc3)ccc12` .
Solution: 30.7

Exercise: Item `Clc1cccc(-c2ccc(OCCCN3CCN(c4ccncc4)CC3)cc2)c1` has what recorded growth?
Solution: 5.23

Exercise: Look at this compound and give its reported growth. `CCCCNC(=S)Nc1ccc(OCc2nc3ccccc3[nH]2)cc1`
Solution: 40

Exercise: Fill in: growth of `O=C(Cn1c(/C=C/c2cccc([N+](=O)[O-])c2)nc2ccccc2c1=O)Nc1ccccc1` is ___
Solution: 80.2

Exercise: What value of measured growth is listed for `CCCCSc1nc(Nc2ccc(S(N)(=O)=O)cc2)c(C#N)c(-c2ccc(Cl)cc2)n1` ?
Solution: 55

---

tested on: EKVX NSCLC; assay: NCI-60 one-dose screen, 48 h; conditions: 10 µM unless noted
About 83,000 compounds went through this panel and 20% of them were active in at least one assay; those are over-represented in the sample as a whole. The source made the active and inactive calls. The calls were made as follows: active = growth percent below 10; inactive = the rest.
Assign a class; possible classes are yes (1) (active), no (0) (inactive)

Exercise: Assay outcome for `c1ccc(-c2csc(Nc3cccc(Nc4nc(-c5ccccc5)cs4)c3)n2)cc1` : what was it?
Solution: no (0)

Exercise: Call for entry `COc1ccc2[nH]cc(-c3cc(N)n4nc(-c5cn(C)c6ccccc56)cc4n3)c2c1` :
Solution: yes (1)

Exercise: Write down the call the test reported for this compound. Item: `Cn1cc(-c2cc3nc(-c4cn(C)c5ncccc45)cc(N)n3n2)c2ccccc21`
Solution: no (0)

Exercise: Hello, I am checking results. What call was entered for C=C1CCC2C3(C)COC(c4ccccc4F)OC3CCC2(C)C1CC(O)C1=CCOC1=O (stereo not given) ?
Solution: no (0)

Exercise: Name the outcome recorded for `CC(=O)Nc1cccc(Nc2nc(NCc3ccccc3)c3ccccc3n2)c1` in the assay.
Solution: yes (1)
